SYSTEM: UniProtKB O75762
Sequence (O75762 whole entry): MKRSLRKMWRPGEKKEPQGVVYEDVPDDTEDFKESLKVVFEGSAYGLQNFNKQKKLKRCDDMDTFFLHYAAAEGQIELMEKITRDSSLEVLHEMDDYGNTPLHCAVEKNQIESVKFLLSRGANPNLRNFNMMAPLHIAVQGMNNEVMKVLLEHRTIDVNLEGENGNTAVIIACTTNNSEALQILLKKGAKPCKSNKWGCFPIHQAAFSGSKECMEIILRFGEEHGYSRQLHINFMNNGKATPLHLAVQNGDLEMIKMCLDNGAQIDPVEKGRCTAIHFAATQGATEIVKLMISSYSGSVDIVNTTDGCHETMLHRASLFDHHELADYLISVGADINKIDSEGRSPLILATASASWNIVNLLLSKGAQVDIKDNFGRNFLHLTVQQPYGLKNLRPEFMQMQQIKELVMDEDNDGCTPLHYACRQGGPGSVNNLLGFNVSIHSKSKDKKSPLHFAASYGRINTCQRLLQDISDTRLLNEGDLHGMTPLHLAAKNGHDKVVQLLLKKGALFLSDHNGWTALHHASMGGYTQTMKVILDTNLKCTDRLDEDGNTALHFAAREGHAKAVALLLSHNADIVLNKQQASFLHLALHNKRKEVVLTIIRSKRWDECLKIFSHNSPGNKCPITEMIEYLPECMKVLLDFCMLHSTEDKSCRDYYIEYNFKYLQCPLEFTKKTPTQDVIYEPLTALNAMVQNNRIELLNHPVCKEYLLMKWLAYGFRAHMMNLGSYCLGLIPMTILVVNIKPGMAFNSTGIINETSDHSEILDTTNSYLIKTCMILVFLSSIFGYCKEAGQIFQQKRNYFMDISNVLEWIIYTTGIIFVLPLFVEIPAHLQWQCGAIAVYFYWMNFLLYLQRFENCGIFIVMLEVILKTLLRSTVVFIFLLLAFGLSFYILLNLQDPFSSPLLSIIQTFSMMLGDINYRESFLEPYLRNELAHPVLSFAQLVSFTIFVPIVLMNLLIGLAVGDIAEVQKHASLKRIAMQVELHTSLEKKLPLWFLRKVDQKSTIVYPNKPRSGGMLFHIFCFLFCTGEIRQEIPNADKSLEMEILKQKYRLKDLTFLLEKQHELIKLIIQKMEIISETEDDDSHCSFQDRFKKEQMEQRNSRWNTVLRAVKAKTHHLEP
TEST SUMMARY: FLIPR assay of inhibitory activity on human TRPA1 (calcium ion flux fluorescence)
Assay type: cell-based
CONDITION: HEK293 cells stably expressing human TRPA1
pIC50: −log10 of the molar value.
OBSERVED PROPERTY: pIC50

Guide cases for pIC50, answers given:
compound=N#Cc1ccc(OC2(C(=O)N3CCN(c4cccc(C(F)(F)F)n4)CC3)CCCC2)cc1 measured_result=7.42
compound=C#Cc1ccc(NC2(C(=O)N3CCC(C(C)(C)C)CC3)CCCC2)cc1 measured_result=5.90
compound=Cc1cccc(N2CCN(C(=O)C3(Nc4ccc(C#N)cc4)CCCC3)CC2)c1 measured_result=7.19
compound=N#Cc1ccc(NC2(C(=O)N3C[C@H]4CC[C@@H](C3)N4c3cccc(C(F)(F)F)n3)CCCC2)cc1 measured_result=7.82
compound=N#Cc1ccc(NC2(C(=O)N3CCN(c4cccc(C(F)(F)F)n4)CC3)CCC2)cc1 measured_result=6.42

I. COc1cc(Cl)ccc1N1CCN(C(=O)C2(Nc3ccc(C#N)cc3)CCCC2)CC1
II. N#Cc1ccc(NC2(C(=O)N3CCN(c4ccc(OC(F)(F)F)cc4)CC3)CCCC2)cc1
[in] Input pair: I , II . Output: entry with lower pIC50. Kindly state the label of the option you pick.
[out] II

A. O=C(N1CCN(c2ccc(C(F)(F)F)nn2)CC1)C1(Oc2ccc([N+](=O)[O-])cc2)CCCC1
B. N#Cc1ccc(NC2(C(=O)N3CCN(c4ccc(C(F)(F)F)cn4)CC3)CCCC2)cc1
C. N#Cc1ccc(NC2(C(=O)N3CCN(c4ccccc4OC(F)(F)F)CC3)CCCC2)cc1
D. N#Cc1ccc(OC2(C(=O)N3CC4CCC3CN4c3cccc(C(F)(F)F)n3)CCCC2)cc1 (centres unmarked)
[in] Arrange the 4 entries by pIC50 so the values rise. // ordering of labels required in reply
[out] A, C, D, B
(A: 6.06, C: 6.82, D: 7.04, B: 7.49)
